- System: SK-OV-3
- Procedure summary: NCI tumour cell line growth inhibition, 48 h
Calls of active or inactive are those of the source. Cut-off read from the data, not from the text of the source: active = GI50 up to about 1.1 µM and inactive = higher.
Property name: GI50

Reference set, count: 4
CCNc1nnc(CSc2nc(-c3ccccc3)c(-c3ccccc3)[nH]2)s1 :: 20.1 µM (inactive)
CCOc1ccccc1NC(=O)CCc1nnc2s/c(=C\CCc3ccccc3)c(=O)n12 :: > 100 µM (inactive)
Nc1nc2c(ncn2C2CCC(CO)O2)c(=O)n1C(=O)c1ccccc1 (centres undefined) :: > 100 µM (inactive)
CN(c1ccccc1)c1nc(=[N+]2CCCC2)ss1.[O-][Cl+3]([O-])([O-])[O-] :: > 100 µM (inactive)

Kindly note the recorded GI50 for CCCCN(C)C(=O)C1=C(C)NC(C)=C(C(=O)N(C)CCCC)C1 , which is > 100 µM (inactive)

Notebook: CC(C)(Oc1ccc(C2C[C@H]2Cl)cc1)C(=O)O (some centres undefined) , GI50 read as > 100 µM (inactive)

For this compound ( C#CCOCn1cnc2c(Sc3c([N+](=O)[O-])ncn3C)ncnc21 ), measured GI50 is > 100 µM (inactive)

This collection of values is drawn from ChEMBL document CHEMBL1201862.
